- ASSAY TARGET: T1, DnaD DDBH2 domain (residues 129-232) (Bacillus subtilis, UniProt P39787 129-232)
- T1 sequence: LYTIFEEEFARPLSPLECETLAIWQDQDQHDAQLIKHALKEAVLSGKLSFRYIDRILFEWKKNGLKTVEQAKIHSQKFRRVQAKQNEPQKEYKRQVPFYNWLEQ
- ASSAY NAME: NMR titration
READOUT KIND: Kd (µM)

BINDER: DnaA domain I (residues 1-81) (domain or fragment) MENILDLWNQALAQIEKKLSKPSFETWMKSTKAHSLQGDTLTITAPNEFARDWLESRYLHLIADTIYELTGEELSIKFVIP
READOUT KIND: Kd
UNIT DESCRIPTOR: µM
ENDPOINT RESULT: 768
